tested on: HIV-1 IIIB (wt); assay: HIV-1 infection assay using MT-2 cells; format: cell-based; settings: Human immunodeficiency virus 1, IIIB, MT2, read-out: EC50 IIIB (wt)
Quantity Kind: pEC50
Answers are plain numbers, as −log10 of the molar value.

Exercise: For Cc1cc(/C=C/C#N)cc(C)c1Nc1ccnc(Nc2ccc(C#N)cc2)n1 [1b, rilpivirine, reference compound] , what is its reported pEC50?
Key: 9.31

====

Would you kindly list Aqueous solubility pH 2.0 for each of these compounds?
test: Aqueous solubility measurement; assay type: physicochemical; conditions: pH 2.0, HPLC method, triplicate
Numbers only, in μg/mL.

>  <Compound>
COc1cc(/C=C/C#N)cc(Br)c1Oc1ccc(N)c(Nc2ccc(C#N)cc2)n1 [8c]

>  <Output Unit>
μg/mL

>  <Aqueous solubility pH 2.0>
0.82

$$$$
>  <Compound>
N#Cc1ccc(Nc2nc(Oc3c(Br)cc(C#N)cc3Br)ccc2N)cc1 [8a]

>  <Output Unit>
μg/mL

>  <Aqueous solubility pH 2.0>
0.79

$$$$

Next item in the queue.
Exercise: For N#C/C=C/c1cc(Cl)c(Oc2ccc(N)c(Nc3ccc(C#N)cc3)n2)c(Cl)c1 [8d] , what is its reported Aqueous solubility pH 2.0?
Key: 0.81
